// reported inhibition at 100 µM for each item listed
Test system: platelet
Assay: Blood platelet aggregation inhibiting effect (collagen-induced)
Type: cell-based, rabbits
Settings: Oryctolagus cuniculus, Platelet; 10^-4 mole, collagen inducer, rabbit PRP; read-out: Blood platelet agg. inh.: percentage inhibition of platelet aggregation
Supply the numeric figure in %, leaving out any unit text.

# count of solved cases: 5
compound_structure_string=CCCc1ccc(C(=O)c2ccc(O)cc2)cc1 test_result=25.3
compound_structure_string=O=C(c1ccccc1)c1ccccc1C(=O)c1ccccc1 test_result=25.8
compound_structure_string=Cc1ccc(C(=O)c2c(C)cc(C)cc2C)cc1 test_result=28.3
compound_structure_string=CCCc1ccc(C(=O)c2ccc(C)cc2)cc1 test_result=16.4
compound_structure_string=Cc1cc(C)c(C(=O)c2ccccc2C)c(C)c1 test_result=17.3

response.value for CCCCc1ccc(CCCC)c(C(=O)c2ccc(C)cc2)c1 (field: inhibition at 100 µM) = 17.3

Per the record, CCCCCCCCCCCCc1ccc(C(=O)Cc2ccccc2)cc1 has inhibition at 100 µM of 6.8

The molecule listed as CCCc1ccc(C(=O)c2ccccc2C)cc1 has a reported inhibition at 100 µM of 10.8

---

Tested on: hind paws of male rats
Test: Anti-inflammatory effect: acute carragheenin edema method
Assay type: in vivo
Settings: Rattus norvegicus, po, read-out: Anti-inf.: edema inhibition rate
test.readout: inhibition in vivo at 100 mg/kg (%)
Express the result in % but write the number alone.

compound_structure_string=O=C(C(=O)c1ccccc1)c1ccccc1 test_result=20.3
compound_structure_string=CCCCCCCc1ccc(C(=O)c2ccc(C)cc2)cc1 test_result=18.7
compound_structure_string=COc1ccc(C(=O)C(=O)c2ccccc2)cc1 test_result=43.9
compound_structure_string=COc1ccc(C(=O)c2ccccc2)cc1 test_result=44.1
compound_structure_string=Cc1ccc(C(=O)C(=O)c2ccccc2)cc1 test_result=25.5
compound_structure_string=O=C(c1ccccc1)c1ccccc1 test_result=47.7
compound_structure_string=CCCCCCCCc1ccc(C(=O)c2cccc(I)c2)cc1 test_result=20.9
compound_structure_string=O=C(Cc1ccccc1)c1ccccc1 test_result=20.9

// moving on: another record for inhibition in vivo at 100 mg/kg
For CCc1ccc(C(=O)c2ccc(OC)cc2)cc1 the compound record lists inhibition in vivo at 100 mg/kg as 20.3

---

Tested on: platelet
Assay: Blood platelet aggregation inhibiting effect (collagen-induced)
Format: cell-based, rabbits
Conditions: Oryctolagus cuniculus, Platelet; 10^-4 mole, collagen inducer, rabbit PRP; read-out: Blood platelet agg. inh.: percentage inhibition of platelet aggregation
Kind request: treat 20% as inclusive, so inhibition at 100 µM at 20% or higher is Condition met, anything lower is Condition not met.

compound_structure_string=Cc1cc(C)c(C(=O)c2ccccc2)cc1C system_under_test=platelet group="Condition not met"

**Q:** inhibition at 100 µM >= 20% for CCCCc1ccc(C(=O)c2ccc(CCCC)cc2)cc1 ?
**A:** Condition not met

**Q:** Textbook exercise: given the entry Cc1ccc(C(=O)c2ccccc2)c(C)c1C , state whether its inhibition at 100 µM is greater than or equal to 20%.
**A:** Condition not met

**Q:** Say whether CCCCCCCCCCCCc1ccc(C(=O)c2ccccc2)cc1 shows inhibition at 100 µM of 20% or more.
**A:** Condition not met

**Q:** Assess whether reported inhibition at 100 µM for Cc1ccc(C(=O)c2ccccc2)cc1 sits at 20% or higher.
**A:** Condition met

**Q:** Determine whether measured inhibition at 100 µM meets or exceeds 20% for CCCCCCCCCCCc1ccc(C(=O)Cc2ccccc2)cc1
**A:** Condition not met

**Q:** Is the recorded value of inhibition at 100 µM equal to or greater than 20% for this compound? Cc1ccc(C(=O)c2ccccc2)cc1C
**A:** Condition met

**Q:** Please check the record CCCc1ccc(C(=O)c2ccc(C)cc2C)cc1 and state if its inhibition at 100 µM is at or above 20%.
**A:** Condition met

**Q:** Please check the record CCCCCc1ccc(C(=O)c2cccc(C)c2)cc1 and state if its inhibition at 100 µM is at or above 20%.
**A:** Condition met

**Q:** Identify whether the reported inhibition at 100 µM of the following compound is 20% or greater: CCCCc1ccc(C(=O)c2ccc(Cl)cc2)cc1
**A:** Condition met
